# method.summary: In vitro stability in rat liver homogenate
# Format: in vitro ADME
# condition.details: tissue homogenate
Catalogue of remaining at 4 h, 5 μM readings, one per entry.

- smiles.code: "CCCCCCCCCCCCC(=O)N[C@@H](CCC(=O)NCCOCCOCC(=O)NCCOCCOCC(=O)N[C@@H](CCC(N)=O)C(=O)N[C@@H](CCCNC(=N)N)C(=O)N1CCC[C@H]1C(=O)N(C)[C@@H](CCCNC(=N)N)C(=O)N[C@H](CC(=O)N[C@@H](CO)C(=O)N[C@@H](Cc1c[nH]cn1)C(=O)N[C@@H](CCCCN)C(=O)NCC(=O)N1CCC[C@H]1C(=O)N[C@@H](CCCC)C(=O)N1CCC[C@H]1C(=O)N[C@@H](Cc1ccc(Cl)cc1)C(=O)O)CC(C)C)C(=O)O"
  remaining at 4 h, 5 μM: "< 1%"

Could you now look at the following molecule, please?
Would you kindly share the measured remaining at 4 h, 5 μM for "CCCC[C@H](NC(=O)[C@@H]1CCCN1C(=O)CNC(=O)[C@H](CCCCN)NC(=O)[C@H](Cc1c[nH]cn1)NC(=O)[C@H](CO)NC(=O)[C@](C)(CC(C)C)NC(=O)[C@H](CCCCNC(=N)N)NC(=O)[C@@H]1CCCN1C(=O)[C@@H](CCCNC(=N)N)NC(=O)[C@H](CCC(N)=O)NC(=O)COCCOCCNC(=O)COCCOCCNC(=O)CC[C@H](NC(=O)CCCCC(=O)O)C(=O)O)C(=O)N1CCC[C@H]1C(=O)N[C@@H](Cc1ccc(Cl)cc1)C(=O)O" ? < 1%

* * *

# method.summary: In vitro stability in rat plasma
# Format: in vitro ADME
attribute.measured: remaining at 4 h, 5 μM (%)
Please give a number only; it is taken to be in %.

Endpoint output: remaining at 4 h, 5 μM of CCCCCCCCCCCCC(=O)N[C@@H](CCC(=O)NCCOCCOCC(=O)NCCOCCOCC(=O)N[C@@H](CCC(N)=O)C(=O)N[C@@H](CCCCNC(=N)N)C(=O)N1CCC[C@H]1C(=O)N(C)[C@@H](CCCNC(=N)N)C(=O)N[C@@H](CC(C)C)C(=O)N[C@@H](CO)C(=O)N[C@@H](Cc1c[nH]cn1)C(=O)N[C@@H](CCCCN)C(=O)NCC(=O)N1CCC[C@H]1C(=O)N[C@@H](CCCC)C(=O)N1CCC[C@H]1C(=O)N[C@@H](Cc1ccc(Cl)cc1)C(=O)O)C(=O)O [compound 353] . Value? 20

* * *

# method.summary: In vitro stability in rat plasma
# Type: in vitro ADME
attribute.measured: remaining at 4 h, 5 μM
Could you kindly put the unit after your number?

Which value of remaining at 4 h, 5 μM has been reported for CCCCCCCCCCCCC(=O)N[C@@H](CCC(=O)NCCOCCOCC(=O)NCCOCCOCC(=O)N[C@@H](CCC(N)=O)C(=O)N[C@@H](CCCNC(=N)N)C(=O)N1CCC[C@H]1C(=O)N(C)[C@@H](CCCNC(=N)N)C(=O)N[C@@H](CC(C)C)C(=O)N[C@@H](CO)C(=O)N[C@@H](Cc1c[nH]cn1)C(=O)N[C@@H](CCCCN)C(=O)NCC(=O)N1CCC[C@H]1C(=O)N[C@@H](CCCC)C(=O)N1CCC[C@H]1C(=O)N[C@@H](Cc1ccc(Cl)cc1)C(=O)O)C(=O)O [compound 287] in the records? 18%

* * *

# assay.system: rat APJ receptor (Rattus norvegicus, UniProt Q9JHG3)
# Construct: expressed in transfected cells
# Sequence (Q9JHG3 whole entry): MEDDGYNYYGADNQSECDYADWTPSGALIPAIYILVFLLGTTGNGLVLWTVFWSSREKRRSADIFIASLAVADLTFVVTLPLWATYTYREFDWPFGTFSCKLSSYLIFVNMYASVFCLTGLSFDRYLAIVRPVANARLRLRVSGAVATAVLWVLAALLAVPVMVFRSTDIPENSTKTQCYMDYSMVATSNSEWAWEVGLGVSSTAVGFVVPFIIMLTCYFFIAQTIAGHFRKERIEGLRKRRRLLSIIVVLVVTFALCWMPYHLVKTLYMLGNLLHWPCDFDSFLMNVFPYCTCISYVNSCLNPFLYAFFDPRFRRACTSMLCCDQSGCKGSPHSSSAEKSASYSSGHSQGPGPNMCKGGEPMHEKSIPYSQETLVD
# method.summary: [35S] GTPγS assay, rat APJ receptor
# Format: biochemical
# condition.details: Table 16, read-out: EC50 Rat APJ Receptor
Starred links: 1 amine or outer side, 2 acyl side, 3 side chain; linkers in the order of their positions; H or OH if unused. Non-standard residues stand in square brackets, D forms with d. Residues, ends and D or L forms follow the SMILES beside them. *: point of attachment. Oic = O=C(O)[C@@H]1C[C@@H]2CCCC[C@@H]2N1; Phe(4-Cl) = N[C@@H](Cc1ccc(Cl)cc1)C(=O)O; γGlu = O=C(O)[C@H](CCC(=O)[*:2])N[*:1]; 2Nal = N[C@@H](Cc1ccc2ccccc2c1)C(=O)O; NMeR = CN[C@@H](CCCNC(=N)N)C(=O)O; Tridecanoyl = CCCCCCCCCCCCC(=O)*; αMeL = CC(C)C[C@](C)(N)C(=O)O; Nle = CCCC[C@H](N)C(=O)O; AEEA = NCCOCCOCC(=O)O; βAla = NCCC(=O)O
attribute.measured: EC50 (pM)
Output spec: scalar in pM, unitless text.

Use these answered entries as a reference point.
- compound: "CCCCCCCCCCCCC(=O)N[C@@H](CCC(=O)NCCOCCOCC(=O)NCCOCCOCC(=O)N[C@@H](CCC(N)=O)C(=O)N[C@@H](CCCNC(=N)N)C(=O)N1CCC[C@H]1C(=O)N(C)[C@@H](CCCNC(=N)N)C(=O)N(C)[C@@H](CC(C)C)C(=O)N[C@@H](CO)C(=O)N[C@@H](Cc1c[nH]cn1)C(=O)N[C@@H](CCCCN)C(=O)NCC(=O)N1CCC[C@H]1C(=O)N[C@@H](CCCC)C(=O)N1CCC[C@H]1C(=O)N[C@@H](Cc1ccc(Cl)cc1)C(=O)O)C(=O)O"
  display.unit: "pM"
  result: 230
- compound: "CCCCCCCCCCCCC(=O)N[C@@H](CCC(=O)NCCOCCOCC(=O)NCCOCCOCC(=O)N[C@@H](CCC(N)=O)C(=O)N[C@@H](CCCNC(=N)N)C(=O)N1CCC[C@H]1C(=O)N[C@@H](CCC(N)=O)C(=O)N[C@@H](CC(C)C)C(=O)N[C@@H](CO)C(=O)N[C@@H](Cc1c[nH]cn1)C(=O)N[C@@H](CCCCN)C(=O)NCC(=O)N1CCC[C@H]1C(=O)N[C@@H](CCCC)C(=O)N1CCC[C@H]1C(=O)N[C@@H](Cc1ccc(Cl)cc1)C(=O)O)C(=O)O [compound 465] ({Tridecanoyl-γGlu-AEEA-AEEA}-QRPQLSHKGP[Nle]P[Phe(4-Cl)]-OH)"
  display.unit: "pM"
  result: 175
- compound: "CCCCCCCCCCCCC(=O)N[C@@H](CCC(=O)NCCOCCOCC(=O)NCCOCCOCC(=O)N[C@@H](CCC(N)=O)C(=O)N[C@@H](CCCNC(=N)N)C(=O)N1CCC[C@H]1C(=O)N1CCC[C@H]1C(=O)N[C@@H](CC(C)C)C(=O)N[C@@H](CO)C(=O)N[C@@H](Cc1c[nH]cn1)C(=O)N[C@@H](CCCCN)C(=O)NCC(=O)N1CCC[C@H]1C(=O)N[C@@H](CCCC)C(=O)N1CCC[C@H]1C(=O)N[C@@H](Cc1ccc(Cl)cc1)C(=O)O)C(=O)O [compound 427] ({Tridecanoyl-γGlu-AEEA-AEEA}-QRPPLSHKGP[Nle]P[Phe(4-Cl)]-OH)"
  display.unit: "pM"
  result: 313
- compound: "CCCCCCCCCCCCC(=O)N[C@@H](CCC(=O)NCCOCCOCC(=O)NCCOCCOCC(=O)N[C@@H](CCC(N)=O)C(=O)N(C)[C@@H](CCCNC(=N)N)C(=O)N[C@@](C)(CC(C)C)C(=O)N[C@@H](CO)C(=O)N[C@@H](Cc1c[nH]cn1)C(=O)N[C@@H](CCCCN)C(=O)NCC(=O)N1[C@H](C(=O)N[C@@H](CCCC)C(=O)N2CCC[C@H]2C(=O)N[C@@H](Cc2ccc(Cl)cc2)C(=O)O)C[C@@H]2CCCC[C@@H]21)C(=O)O [compound 397] ({Tridecanoyl-γGlu-AEEA-AEEA}-Q[NMeR][αMeL]SHKG[Oic][Nle]P[Phe(4-Cl)]-OH)"
  display.unit: "pM"
  result: 16500
- compound: "CCCCCCCCCCCCC(=O)N[C@@H](CCC(=O)NCCOCCOCC(=O)NCCOCCOCC(=O)N[C@@H](CCC(N)=O)C(=O)N[C@@H](CCCNC(=N)N)C(=O)N1CCC[C@H]1C(=O)N(C)[C@@H](CCCNC(=N)N)C(=O)N[C@@H](CC(C)C)C(=O)N[C@@H](CO)C(=O)N[C@@H](Cc1c[nH]cn1)C(=O)N[C@@H](CCCCN)C(=O)NCC(=O)N1CCC[C@H]1C(=O)N[C@@H](CCCC)C(=O)N1CCC[C@@]1(C)C(=O)N[C@@H](Cc1ccc(Cl)cc1)C(=O)O)C(=O)O"
  display.unit: "pM"
  result: 352
- compound: "CCCCCCCCCCCCC(=O)N[C@@H](CCC(=O)NCCOCCOCC(=O)NCCOCCOCC(=O)N[C@@H](CCC(N)=O)C(=O)N[C@@H](CCCCNC(=N)N)C(=O)N1CCC[C@H]1C(=O)N(C)[C@@H](CCCNC(=N)N)C(=O)N[C@@](C)(CC(C)C)C(=O)N[C@@H](CO)C(=O)N[C@@H](Cc1c[nH]cn1)C(=O)N[C@@H](CCCCN)C(=O)NCC(=O)N1CCC[C@H]1C(=O)N[C@@H](CCCC)C(=O)N1CCC[C@H]1C(=O)N[C@@H](Cc1ccc(Cl)cc1)C(=O)O)C(=O)O"
  display.unit: "pM"
  result: 62.7
- compound: "CCCCCCCCCCCCC(=O)N[C@@H](CCC(=O)NCCOCCOCC(=O)NCCOCCOCC(=O)N[C@@H](CCC(N)=O)C(=O)N[C@@H](CCCNC(=N)N)C(=O)N1CCC[C@H]1C(=O)N(C)[C@@H](CCCNC(=N)N)C(=O)N[C@@H](CC(C)C)C(=O)N[C@@H](CO)C(=O)N[C@@H](Cc1c[nH]cn1)C(=O)N[C@@H](CCCCN)C(=O)NCC(=O)N1CCC[C@H]1C(=O)N[C@@H](CCCC)C(=O)N[C@@H](Cc1ccc2ccccc2c1)C(=O)O)C(=O)O [compound 403] ({Tridecanoyl-γGlu-AEEA-AEEA}-QRP[NMeR]LSHKGP[Nle][2Nal]-OH)"
  display.unit: "pM"
  result: 8100
- compound: "CCCCCCCCCCCCC(=O)N[C@@H](CCC(=O)NCCOCCOCC(=O)NCCOCCOCC(=O)N[C@@H](CCC(N)=O)C(=O)N[C@@H](CCC(=O)O)C(=O)N1CCC[C@H]1C(=O)N(C)[C@@H](CCCNC(=N)N)C(=O)N[C@@H](CC(C)C)C(=O)N[C@@H](CO)C(=O)N[C@@H](Cc1c[nH]cn1)C(=O)N[C@@H](CCCCN)C(=O)NCC(=O)N1CCC[C@H]1C(=O)N[C@@H](CCCC)C(=O)N1CCC[C@H]1C(=O)N[C@@H](Cc1ccc(Cl)cc1)C(=O)O)C(=O)O [compound 475] ({Tridecanoyl-γGlu-AEEA-AEEA}-QEP[NMeR]LSHKGP[Nle]P[Phe(4-Cl)]-OH)"
  display.unit: "pM"
  result: 35800

Shifting focus to the compound that follows.
GET /values?readout=EC50&item= CCCCCCCCCCCCC(=O)N[C@@H](CCC(=O)NCCOCCOCC(=O)NCCOCCOCC(=O)N[C@@H](CCC(N)=O)C(=O)N[C@@H](CCCNC(=N)N)C(=O)N1CCC[C@H]1C(=O)N(C)[C@@H](CCCNC(=N)N)C(=O)N[C@@H](CC(C)C)C(=O)N[C@@H](CO)C(=O)N[C@@H](Cc1c[nH]cn1)C(=O)NCCC(=O)NCC(=O)N1CCC[C@H]1C(=O)N[C@@H](CCCC)C(=O)N1CCC[C@H]1C(=O)N[C@@H](Cc1ccc(Cl)cc1)C(=O)O)C(=O)O [compound 424] ({Tridecanoyl-γGlu-AEEA-AEEA}-QRP[NMeR]LSH[βAla]GP[Nle]P[Phe(4-Cl)]-OH) 17200
